biological target: Metabotropic glutamate receptor 1 (Rattus norvegicus, UniProt P23385); assay: Antagonist activity at rat mGluR1; format: functional
Sequence (P23385 whole entry): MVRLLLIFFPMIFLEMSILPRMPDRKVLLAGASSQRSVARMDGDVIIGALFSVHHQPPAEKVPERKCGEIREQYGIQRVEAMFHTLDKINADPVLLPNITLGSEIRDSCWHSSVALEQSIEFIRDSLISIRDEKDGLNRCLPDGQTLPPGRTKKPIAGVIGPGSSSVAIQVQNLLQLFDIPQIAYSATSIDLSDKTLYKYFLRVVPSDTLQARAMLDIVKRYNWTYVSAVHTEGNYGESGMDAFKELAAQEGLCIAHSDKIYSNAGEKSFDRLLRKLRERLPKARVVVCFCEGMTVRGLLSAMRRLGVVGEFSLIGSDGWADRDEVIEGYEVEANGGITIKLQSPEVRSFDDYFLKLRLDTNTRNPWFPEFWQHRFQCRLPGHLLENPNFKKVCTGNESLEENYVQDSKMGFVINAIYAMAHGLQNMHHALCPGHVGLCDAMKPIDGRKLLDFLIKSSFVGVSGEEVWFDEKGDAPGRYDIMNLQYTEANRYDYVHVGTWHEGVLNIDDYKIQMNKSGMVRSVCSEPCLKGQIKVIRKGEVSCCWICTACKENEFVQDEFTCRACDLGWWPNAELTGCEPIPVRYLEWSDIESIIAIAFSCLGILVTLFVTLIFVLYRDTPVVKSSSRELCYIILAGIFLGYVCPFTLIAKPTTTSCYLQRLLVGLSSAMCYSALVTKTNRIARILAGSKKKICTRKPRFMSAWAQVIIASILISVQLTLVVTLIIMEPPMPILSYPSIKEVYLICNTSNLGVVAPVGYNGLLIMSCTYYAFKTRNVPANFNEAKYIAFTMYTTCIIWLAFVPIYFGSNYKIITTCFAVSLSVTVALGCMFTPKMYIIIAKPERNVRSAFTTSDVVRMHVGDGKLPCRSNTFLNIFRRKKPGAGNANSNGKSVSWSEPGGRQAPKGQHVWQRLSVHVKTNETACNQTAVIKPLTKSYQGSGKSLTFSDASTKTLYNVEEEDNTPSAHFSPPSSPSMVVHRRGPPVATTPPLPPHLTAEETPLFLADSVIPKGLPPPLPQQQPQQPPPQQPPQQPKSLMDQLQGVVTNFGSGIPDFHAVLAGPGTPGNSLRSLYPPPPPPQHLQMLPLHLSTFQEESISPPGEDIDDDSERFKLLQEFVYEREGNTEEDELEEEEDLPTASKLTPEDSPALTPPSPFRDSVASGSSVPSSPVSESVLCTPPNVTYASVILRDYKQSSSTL
pKi: −log10 of the molar value.
Note to self: values exactly at 8 are label 1. So pKi at or above 8 is label 1, below is label 0.

                    structure_smiles_string  discrete_label
0  C=C(C)CNc1ncnc2sc3c(=O)n(-c4ccc5scnc5c4)cnc3c12         label 0

[ask] Could you please find out whether C=C(C)CNc1ncnc2sc3c(=O)n(-c4ccccc4)cnc3c12 has pKi that meets 8 or exceeds it?
[reply] label 0

[ask] Could you please find out whether C=C(C)CNc1ncnc2sc3c(=O)n(-c4cccc(Cl)c4)cnc3c12 has pKi that meets 8 or exceeds it?
[reply] label 0

[ask] Could you please find out whether C#CCNc1ccnc2sc3c(=O)n(-c4ccc(OC)c(F)c4)cnc3c12 has pKi that meets 8 or exceeds it?
[reply] label 0

[ask] Could you please find out whether C#CCNc1ccnc2sc3c(=O)n(-c4ccc(OC)cc4)cnc3c12 has pKi that meets 8 or exceeds it?
[reply] label 1

[ask] Could you please find out whether C=C(C)CNc1ccnc2sc3c(=O)n(-c4ccc(Br)cc4)cnc3c12 has pKi that meets 8 or exceeds it?
[reply] label 1

[ask] Could you please find out whether C=CCN(C)c1ccnc2sc3c(=O)n(-c4ccc(OC)cc4)cnc3c12 has pKi that meets 8 or exceeds it?
[reply] label 1

[ask] Could you please find out whether C#CCNc1ncnc2sc3c(=O)n(-c4ccc(OC)cc4)cnc3c12 has pKi that meets 8 or exceeds it?
[reply] label 0
